Below is a list of entries, each paired with its recorded Temperature change value.
# Tested on: Mus musculus
# ASSAY_EXPLANATION: Time-dependent effect on 8-OH-DPAT-induced hypothermia (change in body temperature) after 15 min, in mice at 0.5 mg/kg dose
# Assay type: functional
# output: bare number, implied unit °C

compound=COc1ccccc1N1CCN(CC/C(=N\O)c2csc3ccccc23)CC1 target_or_test_system="Mus musculus" measurement_name="Temperature change" value_unit=°C measurement=-2.16

Which Temperature change reading was recorded for the compound COc1ccccc1N1CCN(CCC(Oc2cccc3ccccc23)c2ccsc2)CC1 (centres undefined) ?
-1.72

Follow-up item: `COc1ccccc1N1CCN(CC/C(=N\O)c2ccc(C)s2)CC1`
-2.12

And the next one, Oc1ccccc1N1CCN(CCC(O)c2csc3ccccc23)CC1 (centres undefined) ?
-2.54

Another compound to look at: COc1ccccc1N1CCN(CCC(O)c2csc3ccccc23)CC1 (centres undefined)
-1.23

Repeat with Oc1ccccc1N1CCN(CCC(O)c2ccc3ccccc3c2)CC1 (centres undefined)
-2.52

Next entry: COc1ccccc1N1CCN(CCC(O)c2cc(C)sc2C)CC1 (centres undefined)
-2.53

Here is the next compound: `COc1ccccc1N1CCN(CCC(=O)c2ccsc2)CC1`
-2.52

* * *

# TARGET_OR_TEST_SYSTEM: Sodium-dependent serotonin transporter (Rattus norvegicus, UniProt P31652)
# Sequence (P31652 whole entry): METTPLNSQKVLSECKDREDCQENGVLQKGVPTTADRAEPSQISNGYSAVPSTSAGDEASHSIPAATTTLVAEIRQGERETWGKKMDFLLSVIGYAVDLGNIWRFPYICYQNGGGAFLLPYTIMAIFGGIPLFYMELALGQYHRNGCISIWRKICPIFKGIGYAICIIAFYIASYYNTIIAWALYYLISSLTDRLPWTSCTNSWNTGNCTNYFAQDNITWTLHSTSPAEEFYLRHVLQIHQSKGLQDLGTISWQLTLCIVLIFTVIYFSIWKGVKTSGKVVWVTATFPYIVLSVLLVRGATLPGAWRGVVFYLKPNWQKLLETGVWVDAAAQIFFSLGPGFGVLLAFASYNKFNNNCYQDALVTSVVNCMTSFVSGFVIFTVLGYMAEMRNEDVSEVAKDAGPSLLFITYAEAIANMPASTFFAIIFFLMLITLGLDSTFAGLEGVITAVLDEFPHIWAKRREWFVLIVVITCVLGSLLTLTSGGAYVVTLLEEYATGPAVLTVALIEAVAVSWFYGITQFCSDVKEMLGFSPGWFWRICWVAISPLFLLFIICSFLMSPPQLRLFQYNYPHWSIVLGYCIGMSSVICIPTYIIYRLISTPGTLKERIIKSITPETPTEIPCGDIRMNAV
# ASSAY_EXPLANATION: Binding affinity towards Serotonin transporter from rat cortex measured using [3H]paroxetine
MEASUREMENT_NAME: pKi
pKi (log units): -log10 of the concentration in mol/L.

Recorded pKi for Oc1ccccc1N1CCN(CCC(O)c2ccc3ccccc3c2)CC1 (stereo unspecified) , please?
6.72

* * *

# TARGET_OR_TEST_SYSTEM: Sodium-dependent serotonin transporter (Rattus norvegicus, UniProt P31652)
# ASSAY_EXPLANATION: Binding affinity towards Serotonin transporter from rat cortex measured using [3H]paroxetine
# STUDY_CONDITIONS: read-out: Ki
MEASUREMENT_NAME: pKi
# pKi = -log10(concentration in molar units)

// known answers, use as guide
molecule="OC(CCN1CCN(c2ccc(Cl)cc2)CC1)c1ccc2ccccc2c1 (stereo unspecified)" measurement=8.00
molecule="OC(CCN1CCN(c2ccc(Cl)cc2)CC1)c1ccsc1 (stereo unspecified)" measurement=6.70

Name the recorded pKi for FC(F)(F)c1ccc(OC(CCN2CCN(c3ccccn3)CC2)c2ccccc2)cc1 (stereo unspecified) .
5.82

Then what about the molecule `O=C(CCN1CCN(c2ccc(Cl)cc2)CC1)c1ccsc1` ?
6.66

Lookup `COc1ccccc1N1CCN(CCC(=O)c2ccc(-c3ccccc3)cc2)CC1`
6.15

Then what about the molecule COc1cc(Cl)ccc1N1CCN(CCC(O)c2csc3ccccc23)CC1 (stereo unspecified) ?
7.46

Try this molecule next: `COc1cc(F)ccc1N1CCN(CCC(=O)c2csc3ccccc23)CC1`
6.30

Ok, now OC(CCN1CCN(c2ccc(Cl)cc2)CC1)c1ccccc1 (stereo unspecified)
6.46

Check `COc1cc(F)ccc1N1CCN(CCC(=O)c2cc(C)sc2C)CC1` too.
6.12

How about this molecule: COc1ccccc1N1CCN(CCC(Oc2ccc3c(c2)OCO3)c2ccsc2)CC1 (stereo unspecified)
5.19

* * *

# TARGET_OR_TEST_SYSTEM: Sodium-dependent serotonin transporter (Rattus norvegicus, UniProt P31652)
# ASSAY_EXPLANATION: Binding affinity towards Serotonin transporter from rat cortex measured using [3H]paroxetine
# STUDY_CONDITIONS: read-out: Ki
pKi: −log10 of the molar value.
// class 0 strictly below 7 in pKi; class 1 otherwise

compound="OC(CCN1CCN(c2ccc(Cl)cc2)CC1)c1csc2ccccc12 (stereo unspecified)" target_or_test_system="Sodium-dependent serotonin transporter (Rattus norvegicus, UniProt P31652)" label_value="class 1"
compound="Oc1ccccc1N1CCN(CCC(O)c2csc3ccccc23)CC1 (stereo unspecified)" target_or_test_system="Sodium-dependent serotonin transporter (Rattus norvegicus, UniProt P31652)" label_value="class 1"
compound=COc1cc(Cl)ccc1N1CCN(CCC(=O)c2csc3ccccc23)CC1 target_or_test_system="Sodium-dependent serotonin transporter (Rattus norvegicus, UniProt P31652)" label_value="class 0"
compound=COc1ccccc1N1CCN(CC/C(=N/O)c2ccc(C)s2)CC1 target_or_test_system="Sodium-dependent serotonin transporter (Rattus norvegicus, UniProt P31652)" label_value="class 0"
compound=O=C(CCN1CCN(c2ccc([N+](=O)[O-])cc2)CC1)c1ccccc1 target_or_test_system="Sodium-dependent serotonin transporter (Rattus norvegicus, UniProt P31652)" label_value="class 0"

Can `COc1ccccc1N1CCN(CC/C(=N/O)c2cc(C)sc2C)CC1` be said to have pKi at or above 7?
class 0

* * *

# TARGET_OR_TEST_SYSTEM: Sodium-dependent serotonin transporter (Rattus norvegicus, UniProt P31652)
# ASSAY_EXPLANATION: Binding affinity towards Serotonin transporter from rat cortex measured using [3H]paroxetine
# STUDY_CONDITIONS: read-out: Ki
pKi: −log10 of the molar value.
Label condition met for high-side pKi (at or above 6) and condition not met for low-side pKi (below it).

compound=O=C(CCN1CCN(c2cccc3ccccc23)CC1)c1csc2ccccc12 label_value="condition met"

hey, is pKi for this one >= 6? COc1ccccc1N1CCN(CCC(O)c2ccc3ccccc3c2)CC1 (stereo unspecified)
condition met

Another: COc1ccccc1N1CCN(CCC(O)c2ccc(C)s2)CC1 (stereo unspecified)
condition not met

* * *

# TARGET_OR_TEST_SYSTEM: 5-hydroxytryptamine receptor 2A (Rattus norvegicus)
# Sequence (P14842 whole entry): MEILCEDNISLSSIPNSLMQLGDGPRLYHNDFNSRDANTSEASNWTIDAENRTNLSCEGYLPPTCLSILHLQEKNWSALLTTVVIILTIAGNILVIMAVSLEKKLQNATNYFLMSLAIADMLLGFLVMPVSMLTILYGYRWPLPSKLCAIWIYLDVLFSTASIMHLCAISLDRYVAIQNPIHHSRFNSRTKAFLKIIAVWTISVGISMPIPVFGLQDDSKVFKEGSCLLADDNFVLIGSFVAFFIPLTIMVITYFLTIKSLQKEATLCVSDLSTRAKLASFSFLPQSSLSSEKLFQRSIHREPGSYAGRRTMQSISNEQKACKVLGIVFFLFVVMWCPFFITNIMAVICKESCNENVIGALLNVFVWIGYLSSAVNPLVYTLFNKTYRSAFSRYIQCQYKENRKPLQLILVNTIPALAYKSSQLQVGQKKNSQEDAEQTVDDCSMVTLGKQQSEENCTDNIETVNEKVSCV
# ASSAY_EXPLANATION: Affinity at 5-hydroxytryptamine 2 receptor from rat frontal cortex using [3H]ketanserin as radioligand (For ketanserin = Ki(nM)=0.7+/-0.09)
# Assay type: tissue-based
MEASUREMENT_NAME: Ki

compound="COc1ccccc1N1CCN(CCC(O)c2csc3ccccc23)CC1 (configuration not stated)" measurement_name=Ki measurement="250 nM"

Shifting focus to the compound that follows.
Sample COc1ccccc1N1CCN(CCC(Oc2cccc3ccccc23)c2ccsc2)CC1 (configuration not stated) — what was its Ki?
> 5000 nM

* * *

# TARGET_OR_TEST_SYSTEM: 5-hydroxytryptamine receptor 1A (Rattus norvegicus, UniProt P19327)
# Sequence (P19327 whole entry): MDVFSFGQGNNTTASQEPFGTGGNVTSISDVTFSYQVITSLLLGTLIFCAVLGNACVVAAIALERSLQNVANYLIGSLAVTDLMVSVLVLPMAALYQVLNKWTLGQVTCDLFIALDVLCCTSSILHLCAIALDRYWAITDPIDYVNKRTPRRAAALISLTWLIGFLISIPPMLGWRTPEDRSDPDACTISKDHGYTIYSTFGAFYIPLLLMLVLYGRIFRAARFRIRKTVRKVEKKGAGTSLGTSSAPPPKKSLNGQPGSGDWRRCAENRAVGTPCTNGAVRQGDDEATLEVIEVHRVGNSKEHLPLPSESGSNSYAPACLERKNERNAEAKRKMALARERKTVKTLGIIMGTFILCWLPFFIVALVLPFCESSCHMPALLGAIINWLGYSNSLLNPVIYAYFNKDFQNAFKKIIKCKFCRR
# ASSAY_EXPLANATION: Binding affinity to 5-hydroxytryptamine 1A receptor (5-HT 1A receptor, serotonin receptor) from rat cortex using [3H]8-OH-DPAT as radioligand
The reader will find reported pKi values listed item by item below.
Please keep in mind that pKi is minus log10 of the molar concentration; only the number is needed.

In the examples that follow, each entry is paired with its recorded pKi.
compound="COc1ccc(C(O)CCN2CCN(c3ccccc3OC)CC2)cc1 (stereo unspecified)" measurement=6.49
compound="OC(CCN1CCN(c2ccccc2Cl)CC1)c1ccccc1 (stereo unspecified)" measurement=6.94
compound=O=C(CCN1CCN(c2ncccn2)CC1)c1ccccc1 measurement=6.92
compound="COc1ccccc1N1CCN(CCC(O)c2ccc(C)s2)CC1 (stereo unspecified)" measurement=7.47

Under 5-hydroxytryptamine receptor 1A (Rattus norvegicus, UniProt P19327): pKi value of `O=C(CCN1CCN(c2cccc3ccccc23)CC1)c1ccsc1` ?
7.46

Then OC(CCN1CCN(c2ccc(F)cc2)CC1)c1ccccc1 (stereo unspecified) ?
6.84

* * *

# Test system: Mus musculus
# ASSAY_EXPLANATION: Time-dependent effect on 8-OH-DPAT-induced hypothermia (change in body temperature) after 60 min, in mice at 0.5 mg/kg dose
# Format: functional
Think of -1 °C as a floor: if Temperature change stands on it or above, it is 1 (yes); beneath it, 0 (no).

Solved cases (5 shown):
compound="Oc1ccccc1N1CCN(CCC(O)c2ccc3ccccc3c2)CC1 (centres undefined)" label_value="0 (no)"
compound=COc1ccccc1N1CCN(CCC(=O)c2ccsc2)CC1 label_value="0 (no)"
compound="COc1ccccc1N1CCN(CCC(O)c2cc(C)sc2C)CC1 (centres undefined)" label_value="0 (no)"
compound="COc1ccccc1N1CCN(CCC(O)c2csc3ccccc23)CC1 (centres undefined)" label_value="1 (yes)"
compound="Oc1ccccc1N1CCN(CCC(O)c2csc3ccccc23)CC1 (centres undefined)" label_value="0 (no)"

Kindly determine if Temperature change recorded for `COc1ccccc1N1CCN(CC/C(=N\O)c2csc3ccccc23)CC1` is above or exactly -1 °C.
0 (no)

And then `COc1ccccc1N1CCN(CC/C(=N\O)c2ccc(C)s2)CC1` , what is it?
0 (no)

Likewise for COc1ccccc1N1CCN(CCC(Oc2cccc3ccccc23)c2ccsc2)CC1 (centres undefined) ?
1 (yes)

* * *

# Test system: Mus musculus
# ASSAY_EXPLANATION: Time-dependent effect on 8-OH-DPAT-induced hypothermia (change in body temperature) after 15 min, in mice at 5 mg/kg dose
# Assay type: functional
MEASUREMENT_NAME: Temperature change (°C)
Give just the number in °C; leave the unit off.

Reference set (4 entries):
compound="COc1ccccc1N1CCN(CCC(O)c2cc(C)sc2C)CC1 (centres undefined)" measurement=-2.01
compound=COc1ccccc1N1CCN(CCC(=O)c2csc3ccccc23)CC1 measurement=-2.53
compound=COc1ccccc1N1CCN(CC/C(=N\O)c2csc3ccccc23)CC1 measurement=-2.77
compound="COc1ccccc1N1CCN(CCC(Oc2cccc3ccccc23)c2ccsc2)CC1 (centres undefined)" measurement=-2.73

Could you tell me which Temperature change is on file for Oc1ccccc1N1CCN(CCC(O)c2csc3ccccc23)CC1 (centres undefined) ?
-3.17

// same read-out, input: `COc1ccccc1N1CCN(CCC(=O)c2ccsc2)CC1`
-2.76

Again, but for `COc1ccccc1N1CCN(CC/C(=N\O)c2ccc(C)s2)CC1`
-1.41

And what about the compound Oc1ccccc1N1CCN(CCC(O)c2ccc3ccccc3c2)CC1 (centres undefined) ?
-1.97

COc1ccccc1N1CCN(CCC(O)c2csc3ccccc23)CC1 (centres undefined) ?
-2.2
